src = the supplement of paper PMC10065799

Each record here notes measured phosphorylation enrichment.
- Target or test system: MERTK (UniProt Q12866)
- Sequence (Q12866 whole entry, looked up): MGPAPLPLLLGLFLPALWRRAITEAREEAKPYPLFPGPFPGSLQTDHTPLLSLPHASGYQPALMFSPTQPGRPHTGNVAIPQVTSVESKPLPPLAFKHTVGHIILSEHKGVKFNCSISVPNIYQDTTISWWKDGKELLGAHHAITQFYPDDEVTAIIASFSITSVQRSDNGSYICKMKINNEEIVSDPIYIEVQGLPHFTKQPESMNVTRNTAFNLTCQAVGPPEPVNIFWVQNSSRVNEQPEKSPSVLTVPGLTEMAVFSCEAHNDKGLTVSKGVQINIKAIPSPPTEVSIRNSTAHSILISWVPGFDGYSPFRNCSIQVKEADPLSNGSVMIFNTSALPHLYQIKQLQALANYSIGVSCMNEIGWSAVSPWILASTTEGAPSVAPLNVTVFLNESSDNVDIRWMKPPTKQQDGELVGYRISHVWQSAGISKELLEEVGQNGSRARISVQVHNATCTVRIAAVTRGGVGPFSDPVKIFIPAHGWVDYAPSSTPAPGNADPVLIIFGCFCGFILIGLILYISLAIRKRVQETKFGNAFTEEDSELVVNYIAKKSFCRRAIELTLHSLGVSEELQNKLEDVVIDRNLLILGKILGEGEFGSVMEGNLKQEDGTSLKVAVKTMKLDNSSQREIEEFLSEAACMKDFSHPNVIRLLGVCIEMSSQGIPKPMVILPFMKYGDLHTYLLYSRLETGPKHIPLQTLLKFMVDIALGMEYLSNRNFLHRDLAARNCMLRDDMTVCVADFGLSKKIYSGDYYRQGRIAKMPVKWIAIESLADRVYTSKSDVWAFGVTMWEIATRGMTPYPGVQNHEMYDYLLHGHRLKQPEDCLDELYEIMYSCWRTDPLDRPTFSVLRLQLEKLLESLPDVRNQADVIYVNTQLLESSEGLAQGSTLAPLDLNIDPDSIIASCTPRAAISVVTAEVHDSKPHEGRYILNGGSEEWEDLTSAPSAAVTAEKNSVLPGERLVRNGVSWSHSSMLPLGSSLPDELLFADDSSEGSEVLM
- Experimental protocol: phosphorylation enrichment, bacterial display (enrichment ratio); higher = better substrate or ligand; peptides without Tyr show the background;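 also: 11-residue human phosphosite peptides and single-mutation variants displayed on the E. coli surface, counted by deep sequencing, each peptide's frequency after selection divided by its frequency in the unselected input library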;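 also: frequency after pTyr selection over input frequency; kinase dosed for 20-30% of maximal phosphorylation in three min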
// keep it numeric: no unit symbol after the value

Item sequence | phosphorylation enrichment
LADKPYTFEDF [FXN_Y118_YF] | 1.39
ARRHPYFYAPE [ALB_Y172] | 0.893
FKEDPYLVVNP [MCM6_Y810_E806K_YF] | 0.449
EKLIQYCQSKG [AKR1B1_Y199] | 0.423

Given the sequence CKLYQYYLDHL [ATRX_Y1849] , write its reported phosphorylation enrichment.
2.12

Given the sequence MDDPRYGMCPL [ZNF100_Y6] , write its reported phosphorylation enrichment.
0.56

Given the sequence LLVVLNKYRCY [PSEN1_Y154_Y154N] , write its reported phosphorylation enrichment.
0.456

====

Each record here notes measured phosphorylation enrichment.
- Target or test system: EPHB1 (UniProt P54762)
- Sequence (P54762 whole entry, looked up): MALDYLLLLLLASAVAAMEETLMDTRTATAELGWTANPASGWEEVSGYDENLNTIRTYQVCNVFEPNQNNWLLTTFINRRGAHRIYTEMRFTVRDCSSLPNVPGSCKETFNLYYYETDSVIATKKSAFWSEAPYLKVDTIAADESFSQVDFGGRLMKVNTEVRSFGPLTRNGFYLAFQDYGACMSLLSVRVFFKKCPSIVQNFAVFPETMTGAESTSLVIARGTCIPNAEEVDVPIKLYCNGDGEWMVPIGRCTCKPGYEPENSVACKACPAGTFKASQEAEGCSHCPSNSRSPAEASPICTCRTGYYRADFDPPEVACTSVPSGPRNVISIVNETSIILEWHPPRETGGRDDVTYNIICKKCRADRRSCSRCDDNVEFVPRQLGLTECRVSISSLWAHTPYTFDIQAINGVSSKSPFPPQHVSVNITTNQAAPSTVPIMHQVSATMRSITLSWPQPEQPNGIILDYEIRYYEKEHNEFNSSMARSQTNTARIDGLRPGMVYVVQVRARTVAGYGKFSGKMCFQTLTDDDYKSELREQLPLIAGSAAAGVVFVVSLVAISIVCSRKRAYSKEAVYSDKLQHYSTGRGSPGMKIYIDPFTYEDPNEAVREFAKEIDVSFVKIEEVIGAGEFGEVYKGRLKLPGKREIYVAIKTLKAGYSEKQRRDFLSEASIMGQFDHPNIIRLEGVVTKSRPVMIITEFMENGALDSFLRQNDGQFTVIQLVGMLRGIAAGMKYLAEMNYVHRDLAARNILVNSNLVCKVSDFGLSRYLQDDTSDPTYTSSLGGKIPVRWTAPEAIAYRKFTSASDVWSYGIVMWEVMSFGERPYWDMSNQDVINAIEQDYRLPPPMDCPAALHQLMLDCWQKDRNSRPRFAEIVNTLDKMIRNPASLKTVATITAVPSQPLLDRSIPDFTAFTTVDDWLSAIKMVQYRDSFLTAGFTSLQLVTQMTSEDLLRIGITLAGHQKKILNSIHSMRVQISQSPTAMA
- Experimental protocol: phosphorylation enrichment, bacterial display (enrichment ratio); higher = better substrate or ligand; peptides without Tyr show the background
// keep it numeric: no unit symbol after the value

Given the sequence DENCFYTRAAS [RPS19_Y54_W52C] , write its reported phosphorylation enrichment.
0.587

Given the sequence LHSEAYLKFNE [PBRM1_Y1610_I1614N_YF] , write its reported phosphorylation enrichment.
0.438

Given the sequence YSNKLYYQLEQ [PDPR_Y109] , write its reported phosphorylation enrichment.
3.14

Given the sequence EWLRGYLENGK [HLA-C_Y195_R194G] , write its reported phosphorylation enrichment.
0.51

Given the sequence LEQQKYTVTVD [IKBKB_Y199] , write its reported phosphorylation enrichment.
0.566

Given the sequence AVISVYDLVVV [PSEN1_Y256_A260V] , write its reported phosphorylation enrichment.
5.61

Given the sequence RGFRQYAFDGK [HLA-A_Y140_D140Y_YF] , write its reported phosphorylation enrichment.
0.715

Given the sequence KDLPNYNWNSF [KISS1_Y112] , write its reported phosphorylation enrichment.
0.505

Given the sequence DLNATYCTIQG [U2SURP_Y634_R635C] , write its reported phosphorylation enrichment.
7.15

Given the sequence AQPHTYEEPGR [EPHA8_Y616_E612Q] , write its reported phosphorylation enrichment.
0.519

Given the sequence LVSCAYQMARG [FGFR1_Y605_V607M] , write its reported phosphorylation enrichment.
0.578

Given the sequence CDTKLYTSAPN [DNTTIP2_Y427] , write its reported phosphorylation enrichment.
0.626

Given the sequence RENGPYYTSYP [GDAP2_Y487] , write its reported phosphorylation enrichment.
0.896

====

- Target or test system: Fyn (UniProt P06241)
- Sequence (P06241 whole entry, looked up): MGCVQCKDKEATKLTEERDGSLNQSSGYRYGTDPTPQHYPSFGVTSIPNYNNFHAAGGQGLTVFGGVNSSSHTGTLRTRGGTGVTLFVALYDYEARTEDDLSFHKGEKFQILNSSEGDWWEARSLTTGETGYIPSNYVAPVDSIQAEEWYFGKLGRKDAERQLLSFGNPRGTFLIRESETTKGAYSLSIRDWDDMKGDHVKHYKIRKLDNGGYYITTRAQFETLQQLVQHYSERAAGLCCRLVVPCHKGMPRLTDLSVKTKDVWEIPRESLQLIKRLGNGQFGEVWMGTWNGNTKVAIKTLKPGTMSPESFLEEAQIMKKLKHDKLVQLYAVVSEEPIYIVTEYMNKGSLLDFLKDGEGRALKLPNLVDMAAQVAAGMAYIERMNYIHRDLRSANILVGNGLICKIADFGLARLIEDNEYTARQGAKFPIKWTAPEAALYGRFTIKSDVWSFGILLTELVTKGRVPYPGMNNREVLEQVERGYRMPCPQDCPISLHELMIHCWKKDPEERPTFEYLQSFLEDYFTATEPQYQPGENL
- Experimental protocol: phosphorylation enrichment, bacterial display (enrichment ratio); higher = better substrate or ligand; peptides without Tyr show the background
Measurement type: phosphorylation enrichment
// keep it numeric: no unit symbol after the value

Record excerpt, results attached:
Item sequence | phosphorylation enrichment
GREEFYSTHPH [LRRK2_Y1402] | 0.42
DVLEFCNSKKT [PAK1_Y131_Y131C] | 0.423
PSSNLYFRCLT [CNGA3_Y168_W171C_YF] | 0.707
PLRANYLIARV [HLCS_Y635_D634N] | 0.769
DENWFYTRAAF [RPS19_Y54_S59F] | 0.47
KELALYDENWF [RPS19_Y48_P47L] | 1.02

Given the sequence DTKDDYSALSV [IL17RB_Y457_N458S] , write its reported phosphorylation enrichment.
0.56

Given the sequence TKDTFYKQPMF [GBA_Y451] , write its reported phosphorylation enrichment.
0.419

Given the sequence GEDEPYAEPFA [APBA1_Y183_S184A_YF] , write its reported phosphorylation enrichment.
0.462

Given the sequence EFGEVYKGMLK [EPHA2_Y628] , write its reported phosphorylation enrichment.
0.422

====

- Target or test system: Fes (UniProt P07332)
- Sequence (P07332 whole entry, looked up): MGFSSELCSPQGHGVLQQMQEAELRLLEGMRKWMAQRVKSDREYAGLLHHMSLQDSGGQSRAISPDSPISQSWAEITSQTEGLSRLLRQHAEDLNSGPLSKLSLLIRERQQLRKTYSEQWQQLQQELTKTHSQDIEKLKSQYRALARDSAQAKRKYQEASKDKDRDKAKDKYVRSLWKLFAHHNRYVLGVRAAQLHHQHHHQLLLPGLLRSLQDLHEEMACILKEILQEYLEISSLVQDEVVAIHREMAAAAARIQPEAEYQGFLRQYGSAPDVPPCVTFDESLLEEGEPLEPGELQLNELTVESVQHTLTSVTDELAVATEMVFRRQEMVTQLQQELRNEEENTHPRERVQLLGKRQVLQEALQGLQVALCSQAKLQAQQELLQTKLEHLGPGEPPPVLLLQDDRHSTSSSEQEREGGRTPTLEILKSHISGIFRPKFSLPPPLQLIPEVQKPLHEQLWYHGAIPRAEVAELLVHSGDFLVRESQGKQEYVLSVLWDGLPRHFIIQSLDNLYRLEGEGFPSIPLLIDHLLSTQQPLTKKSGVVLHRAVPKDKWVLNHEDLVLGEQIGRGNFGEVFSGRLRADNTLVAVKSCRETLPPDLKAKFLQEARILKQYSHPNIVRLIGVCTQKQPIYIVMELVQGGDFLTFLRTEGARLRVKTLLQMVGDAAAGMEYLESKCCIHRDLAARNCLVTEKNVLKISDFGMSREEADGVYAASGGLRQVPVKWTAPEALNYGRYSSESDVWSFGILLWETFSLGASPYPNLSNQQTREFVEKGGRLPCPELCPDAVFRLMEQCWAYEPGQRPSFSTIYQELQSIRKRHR
- Experimental protocol: phosphorylation enrichment, bacterial display (enrichment ratio); higher = better substrate or ligand; peptides without Tyr show the background
Measurement type: phosphorylation enrichment
// keep it numeric: no unit symbol after the value

Given the sequence FASALYRQRRS [FGF11_Y162_YF] , write its reported phosphorylation enrichment.
0.592

Given the sequence IIRRLYLKWHP [SACS_Y4333] , write its reported phosphorylation enrichment.
0.904

Given the sequence RKKLFYKADGE [SERPINC1_Y272_E269K] , write its reported phosphorylation enrichment.
0.648

Given the sequence ILGRYYETSSI [PAX2_Y73_G76S] , write its reported phosphorylation enrichment.
0.705

Given the sequence NTGNFYDLFGG [PTPN11_Y63_D61N_YF] , write its reported phosphorylation enrichment.
0.955

====

- Target or test system: MERTK (UniProt Q12866)
- Experimental protocol: phosphorylation enrichment, bacterial display (enrichment ratio); higher = better substrate or ligand; peptides without Tyr show the background
Returns one of Condition met or Condition not met; Condition met when phosphorylation enrichment is >= 0.8.

Take a look at these entries with their results.
Item sequence | Category label
QNTGYYYDLYG [PTPN11_Y62_D61Y] | Condition met
DLTQDSEEWKR [ORC6_Y232_Y232S] | Condition not met
DFPIGYPSYLA [TBCK_Y153] | Condition not met
VMTLDYSKTVV [SETD2_Y770_V768L] | Condition not met
TDLAFYLVREG [ASL_Y376_K380E_YF] | Condition not met
VNFGAYINDFN [GLB1_Y488_K493N_YF] | Condition not met
FQKNIYSEEPR [LMNA_Y211_L215P] | Condition met
LKFAIYFEARE [LAMA2_Y1258_YF] | Condition met

Then there is this sequence:
Kindly determine if phosphorylation enrichment recorded for PINLYYLMDLS [ITGB2_Y131_D128N] is above or exactly 0.8.
Condition met

====

Each record here notes measured phosphorylation enrichment.
- Target or test system: FGFR1 (UniProt P11362)
- Sequence (P11362 whole entry, looked up): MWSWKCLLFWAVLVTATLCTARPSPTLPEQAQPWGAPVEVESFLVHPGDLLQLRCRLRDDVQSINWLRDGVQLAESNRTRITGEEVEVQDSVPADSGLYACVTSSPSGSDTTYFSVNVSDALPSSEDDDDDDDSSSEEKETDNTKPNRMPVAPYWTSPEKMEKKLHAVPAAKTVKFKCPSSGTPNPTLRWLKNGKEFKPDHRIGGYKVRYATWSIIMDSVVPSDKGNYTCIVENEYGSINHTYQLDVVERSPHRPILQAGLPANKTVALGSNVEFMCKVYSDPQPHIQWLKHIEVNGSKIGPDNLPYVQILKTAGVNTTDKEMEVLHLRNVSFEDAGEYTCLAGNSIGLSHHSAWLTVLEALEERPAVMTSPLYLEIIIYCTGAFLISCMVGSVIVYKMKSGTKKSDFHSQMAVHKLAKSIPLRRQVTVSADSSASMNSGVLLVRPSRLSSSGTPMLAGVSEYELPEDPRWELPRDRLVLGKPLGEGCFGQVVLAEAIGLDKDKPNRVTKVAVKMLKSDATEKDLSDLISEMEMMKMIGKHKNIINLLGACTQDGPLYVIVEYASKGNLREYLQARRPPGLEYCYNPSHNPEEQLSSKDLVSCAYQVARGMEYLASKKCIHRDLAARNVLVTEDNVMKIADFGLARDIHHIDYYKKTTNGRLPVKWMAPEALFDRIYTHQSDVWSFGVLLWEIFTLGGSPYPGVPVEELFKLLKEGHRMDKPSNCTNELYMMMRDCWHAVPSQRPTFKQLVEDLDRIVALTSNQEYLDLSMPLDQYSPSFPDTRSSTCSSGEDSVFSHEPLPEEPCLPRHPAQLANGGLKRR
- Experimental protocol: phosphorylation enrichment, bacterial display (enrichment ratio); higher = better substrate or ligand; peptides without Tyr show the background
// keep it numeric: no unit symbol after the value

Given the sequence KDAGDYKCKAK [LRIT3_Y326] , write its reported phosphorylation enrichment.
0.448

Given the sequence PLDVEYFTLQI [TP53_Y327_G325V] , write its reported phosphorylation enrichment.
7.84

Given the sequence SLGSPYEQPPR [PDLIM4_Y137_G138E] , write its reported phosphorylation enrichment.
0.46

Given the sequence TQPSPYAVYRF [RPGRIP1_Y823] , write its reported phosphorylation enrichment.
0.794

Given the sequence FADIAYNFRHG [PAH_Y166_YF] , write its reported phosphorylation enrichment.
0.581

Given the sequence VIVRMYDYHVL [RPF2_Y109_G106V] , write its reported phosphorylation enrichment.
3.25

Given the sequence HDEPTYARSSK [PEAK1_Y616] , write its reported phosphorylation enrichment.
0.389

Given the sequence KPLMPYMRFSR [SMARCE1_Y73_YF] , write its reported phosphorylation enrichment.
0.466

Given the sequence RKKLFYKADGE [SERPINC1_Y272_E269K] , write its reported phosphorylation enrichment.
0.528

Given the sequence KDLPNYNWNSF [KISS1_Y112] , write its reported phosphorylation enrichment.
0.432

====

- Tested on: AncSZ
- Experimental protocol: phosphorylation enrichment, bacterial display (enrichment ratio); higher = better substrate or ligand; peptides without Tyr show the background
Returns one of Y or N; Y when phosphorylation enrichment is >= 1.

Item sequence | Category label
NHQFDYTFHWT [CSNK1A1_Y294_D297H_YF] | Y

Then there is this sequence:
Kindly determine if phosphorylation enrichment recorded for MHDSNSVSKGS [PDGFRA_Y849_Y849S] is above or exactly 1.
N

====

- Target or test system: EPHB1 (UniProt P54762)
- Experimental protocol: phosphorylation enrichment, bacterial display (enrichment ratio); higher = better substrate or ligand; peptides without Tyr show the background
Returns one of 1 or 0; 1 when phosphorylation enrichment is >= 0.6.

Take a look at these entries with their results.
Item sequence | Category label
NTTIHYNFMCN [TP53_Y234_C229N_YF] | 1
KDGIGYISAAE [CALM2_Y100_N98I] | 0
MAPQMYESHLP [NCAPD2_Y6_F8S] | 0

Kindly determine if phosphorylation enrichment recorded for SKEPYYVRCIK [MYO1D_Y586] is above or exactly 0.6.
0

Kindly determine if phosphorylation enrichment recorded for LIHLHYIRKDF [BBS4_Y43_YF] is above or exactly 0.6.
1

Kindly determine if phosphorylation enrichment recorded for TLRKTYGEMAD [ALB_Y108_E106K] is above or exactly 0.6.
0

Kindly determine if phosphorylation enrichment recorded for RHFSSYSQMEN [PKP1_Y120_R116H] is above or exactly 0.6.
1

Kindly determine if phosphorylation enrichment recorded for QDRDLYPCPGT [RLF_Y671] is above or exactly 0.6.
1
